B1: KRT15 (parent)
chain: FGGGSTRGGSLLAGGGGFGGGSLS

variants of: B1; test: protein stability index of a GFP-peptide fusion (GPS, HEK-293T) (PSI 1-6); higher = more stable; conditions: c terminus: a fixed tail appended;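 further: lentivirally expressed fusions sorted by FACS into six bins by GFP to DsRed ratio, PSI derived from sequencing read proportions per bin multiplied by bin number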
Listed below: protein stability index values for each entry.
API doc: respond with a numeric literal and nothing else, no unit.

**Q:** For the variant shown here, `R7D` , give the reported protein stability index.
**A:** 1.54

**Q:** Please do the same for `F1Y` as well.
**A:** 2.25

**Q:** Please do the same for `A13D` as well.
**A:** 3.4

**Q:** Please do the same for `L11M` as well.
**A:** 1.6

**Q:** Please do the same for `G17C` as well.
**A:** 1.03

**Q:** Please do the same for `T6M` as well.
**A:** 1.33

**Q:** Please do the same for `S22H` as well.
**A:** 2.29

**Q:** Please do the same for `G14R` as well.
**A:** 2.42

**Q:** Please do the same for `T6K` as well.
**A:** 1.66

**Q:** Please do the same for `G17E` as well.
**A:** 2.74

**Q:** Please do the same for `G2P` as well.
**A:** 1.96

**Q:** Please do the same for `S24P` as well.
**A:** 2.66

**Q:** Please do the same for `G21I` as well.
**A:** 1.34

The measured values listed here are drawn from the supplement of paper PMC10567573.
